Attribution: the supplement of paper PMC10567573

B1: SNAP91 (parent)
chain: FATASAAVPVSTSKPSSDLLDLQP

- Variants of: B1
- assay.summary: protein stability index of a GFP-peptide fusion (GPS, HEK-293T) (PSI 1-6); higher = more stable;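 also: lentivirally expressed fusions sorted by FACS into six bins by GFP to DsRed ratio, PSI derived from sequencing read proportions per bin multiplied by bin number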
- reported.conditions: c terminus: a fixed tail appended
Respond with Met for protein stability index values of 4 and above, Not met for values below.

Is it the case that T3W has protein stability index reaching or exceeding 4?
Not met

# iterate: S5D
Met

# iterate: A7C
Not met

# iterate: V8R
Not met

# iterate: P15M
Not met

# iterate: A6V
Not met

# iterate: A7D
Met

# iterate: A4K
Not met

# iterate: A6T
Not met

# iterate: D21A
Not met

# iterate: P15E
Met

# iterate: L20M
Not met

# iterate: V10P
Met

# iterate: D18W
Not met

# iterate: V10T
Met

# iterate: S17L
Not met

# iterate: V8C
Not met

# iterate: L19P
Met

# iterate: P15T
Not met
